- Test summary: gradient 5% acetonitrile 3 min, to 50% in 2 min, to 85% in 15 min, held 3 min, 100 µL/min
- Assay context: column: Zorbax Extend-C18 2.1 x 50 mm; eluents: water / acetonitrile, 0.1% formic acid
Readout: RP-LC retention time (s)

{"Compound": "CC(C)CN1C(=O)CCc2cc(NS(=O)(=O)c3cccs3)ccc21", "RP-LC retention time (s)": 819}
{"Compound": "Cc1nn2c(CNS(=O)(=O)c3ccc4c(c3)OCCO4)c(-c3ccccc3)nc2s1", "RP-LC retention time (s)": 817}
{"Compound": "Cc1cc2c(c(=O)n(-c3ccc(F)cc3)c(=O)n2CC(=O)Nc2ccc3c(c2)OCO3)n1C", "RP-LC retention time (s)": 807}
{"Compound": "Cc1ccc(S(=O)(=O)N2CCCC2)cc1-c1nnc(-c2ccccc2)o1", "RP-LC retention time (s)": 1010}
{"Compound": "CC(=O)Oc1ccccc1C1=NN(C(C)=O)C(c2cccc(Br)c2)O1 (centres undefined)", "RP-LC retention time (s)": 1040}
{"Compound": "CCc1cc(C2CCCN2C(=O)Nc2ccccc2C)on1 (centres undefined)", "RP-LC retention time (s)": 780}
{"Compound": "O=c1n(Cc2ccccc2)nc2n1CCN(S(=O)(=O)c1cnc[nH]1)CC2", "RP-LC retention time (s)": 646}
{"Compound": "CCOc1ccc(-c2noc(Cn3c(=O)n(CC)c(=O)c4ccccc43)n2)cc1OC", "RP-LC retention time (s)": 984}
{"Compound": "O=C(NCc1ccco1)c1cc2c(=O)n(Cc3ccccc3)ccc2s1", "RP-LC retention time (s)": 822}

====

- Test summary: gradient 5% acetonitrile 3 min, to 50% in 2 min, to 85% in 15 min, held 3 min, 100 µL/min
- Assay context: column: Zorbax Extend-C18 2.1 x 50 mm; eluents: water / acetonitrile, 0.1% formic acid
Readout: RP-LC retention time (s)

{"Molecule": "CC(=O)N1c2ccc(S(=O)(=O)N3CCCCC3)cc2CC1C(=O)NCCN1CCCCC1 (stereo not drawn)", "RP-LC retention time [s]": 626}
{"Molecule": "Cc1ccc(NC(=O)COc2cc(C)nc(N3CCN(c4ccccc4)CC3)n2)c(C)c1", "RP-LC retention time [s]": 914}
{"Molecule": "CSc1cccc(NC(=O)Cn2ccn3nc(-c4ccccc4)c(CO)c3c2=O)c1", "RP-LC retention time [s]": 852}

====

- Test summary: gradient 5% acetonitrile 3 min, to 50% in 2 min, to 85% in 15 min, held 3 min, 100 µL/min
- Assay context: column: Zorbax Extend-C18 2.1 x 50 mm; eluents: water / acetonitrile, 0.1% formic acid
Readout: RP-LC retention time (s)

{"Molecule": "COc1ccccc1N1CCN(c2cc(SCC(=O)NC3CCCCC3)ncn2)CC1", "Readout": "RP-LC retention time", "Readout number": 875}
{"Molecule": "COc1ccc(NC(=O)c2sc(-c3cn(C(C)C)c4ncccc34)nc2C)cc1", "Readout": "RP-LC retention time", "Readout number": 902}
{"Molecule": "CCOC(=O)c1ccc(N2C=C(C#N)S(=O)(=O)c3cc(F)ccc32)cc1", "Readout": "RP-LC retention time", "Readout number": 907}
{"Molecule": "CCOC(=O)c1ccc(NC(=O)c2ccc3c(c2)N(C)C2CCCCN2C3=O)cc1 (centres undefined)", "Readout": "RP-LC retention time", "Readout number": 896}
